tested on: BDF1 mice, P388 leukemia ip, median survival T/C; experiment: NCI In Vivo Anticancer Drug Screen. Data for tumor model P388 Leukemia (intraperitoneal) in B6D2F1 (BDF1) mice; conditions: endpoint: median survival time; dose: 12.5 mg/kg/injection; schedule: Q04DX003 (ip); vehicle: saline; higher = longer survival
Toxic doses and inconclusive results are not listed.
T/C reference

{"compound": "CCCCOCCN1CCN(CCCN2c3ccccc3Sc3ccc(C(F)(F)F)cc32)CC1", "assayEndpoint": "T/C", "reportedMeasurement": "111 % of control"}

Please examine the following record next.
State its T/C for this compound: ClCCN(CCCl)CCNc1ccnc2cc(Cl)ccc12
163 % of control
